test.system: IGF 3P (Homo sapiens, UniProt P08069)
Construct: human IGF1R kinase domain residues M954-C1367; made in house; host or cells: baculovirus expression (insect cells)
Sequence (P08069 954-1367): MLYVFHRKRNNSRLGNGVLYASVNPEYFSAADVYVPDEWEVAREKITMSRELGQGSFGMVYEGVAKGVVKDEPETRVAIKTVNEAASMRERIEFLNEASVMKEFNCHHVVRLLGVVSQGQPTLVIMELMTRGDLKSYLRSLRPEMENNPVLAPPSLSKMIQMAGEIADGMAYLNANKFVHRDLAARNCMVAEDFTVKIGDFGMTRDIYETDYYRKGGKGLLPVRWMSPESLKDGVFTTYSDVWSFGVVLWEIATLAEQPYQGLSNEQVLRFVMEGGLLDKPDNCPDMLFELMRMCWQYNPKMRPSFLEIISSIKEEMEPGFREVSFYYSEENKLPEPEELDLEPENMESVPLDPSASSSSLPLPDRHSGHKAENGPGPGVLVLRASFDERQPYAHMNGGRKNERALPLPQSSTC
assay.notes: IGF1R kinase assay (LCCA), IGF 3P
Format: biochemical
condition: IGF1R kinase LCCA assay
pIC50: −log10 of the molar value.
measurement.kind: pIC50

Some solved entries appear below for comparison.
Cc1cc(Nc2cc(C3CC3)n[nH]2)nc(NCc2nc(C(=O)NCCc3cccc(Cl)c3)cs2)n1; 5.30 to 6.30
Brc1cnc(NCc2csc(-c3cccs3)n2)nc1Nc1cc(C2CC2)[nH]n1; 5.30 to 6.30
Brc1ccc(Br)c(Nc2ncc(Br)c(Nc3cc(C4CC4)n[nH]3)n2)c1; 5.30 to 6.30
CN(C)CCCNc1ncc(Br)c(Nc2cc(C3CC3)n[nH]2)n1; 5.30 to 6.30
Cc1cc(Nc2cc(C3CC3)n[nH]2)nc(Nc2ccc(CCC(=O)N(C)C)cc2)n1; 6.30 to 7.30
Nc1nc(Nc2ccc(N3CCOCC3)cc2)ncc1Br; < 5.30
Clc1ccccc1Nc1ncc(Br)c(Nc2cc(C3CC3)on2)n1; < 5.30
Brc1cnc(Nc2ccccc2N2CCCCC2)nc1Nc1cc(C2CC2)[nH]n1; < 5.30
Brc1cnc(NCc2cnn(-c3ccccc3)n2)nc1Nc1cc(C2CC2)n[nH]1; < 5.30
Nc1ncc(Br)c(Nc2cc(C3CC3)[nH]n2)n1; < 5.30

Record Brc1cnc(NC2CCc3ccccc32)nc1Nc1cc(C2CC2)[nH]n1 (stereo not drawn) , field pIC50: 5.30 to 6.30

Notebook: "Brc1cnc(Nc2cc(C3CC3)n[nH]2)nc1Nc1cc(C2CC2)n[nH]1" , pIC50 read as 6.30 to 7.30

Documented pIC50 of "Brc1cnc(Nc2ccc(N3CCOCC3)cc2)nc1Nc1cc(-c2ccco2)[nH]n1" : 6.30 to 7.30

Please fill in: pIC50 reported for "Brc1cnc(Nc2ccc3[nH]ccc3c2)nc1Nc1cc(C2CC2)n[nH]1" = 6.30 to 7.30

The reported pIC50 of the molecule "O=C(Nc1ccc(N2CCOCC2)cc1)c1nc(Nc2ccccc2Cl)nc(Nc2cc(C3CC3)n[nH]2)c1[N+](=O)[O-]" was < 5.30

Reported pIC50 for "Cc1cc(NCc2ccccc2)nc(NCc2cc(-c3ccccc3)no2)n1" was < 5.30
